The origin of these recorded values is ChEMBL document CHEMBL1130483.

Listed compounds paired with reported IC50
studySystem: Tubulin (Bos taurus, UniProt Q6B856+Q862L2+Q862F3)
experimentSummary: Compound was evaluated for inhibition of tubulin polymerization using purified bovine brain tubulin, activity expressed as IC50
Type: functional, tissue-based
Numeric answer only, unit µM assumed.

Observe how each entry below is paired with its result.
Entry C[C@]12CC[C@@H]3c4ccc(=N)c(O)cc4CC[C@H]3[C@@H]1CC[C@@H]2O — recorded IC50 = 14.4

Given item CN(C)c1cc2c(ccc1=O)[C@H]1CC[C@]3(C)[C@@H](O)CC[C@H]3[C@@H]1CC2 , the value recorded as its IC50 is 46.8

Turning now to a further compound:
Record C[C@]12CC[C@@H]3c4ccc(=O)c(N)cc4CC[C@H]3[C@@H]1CC[C@@H]2O . Reported IC50: 9.2

* * *

studySystem: Tubulin (Bos taurus, UniProt Q6B856+Q862L2+Q862F3)
experimentSummary: Compound was evaluated for inhibition of tubulin polymerization using purified bovine brain tubulin, activity expressed as IC50
Assay type: functional, tissue-based
Listed molecules paired with reported IC50
Give your result in µM as a bare value.

Solved cases below.
Item C[C@]12CC[C@@H]3c4cc(N)c(=O)ccc4CC[C@H]3[C@@H]1CC[C@@H]2O ; assay system Tubulin (Bos taurus, UniProt Q6B856+Q862L2+Q862F3); IC50 reported as 16.5

Readout IC50 for C=Cc1ccc2c(cc1=O)CC[C@@H]1[C@@H]2CC[C@]2(C)[C@@H](O)CC[C@@H]12 , test system Tubulin (Bos taurus, UniProt Q6B856+Q862L2+Q862F3), was 14.2

Known value: Tubulin (Bos taurus, UniProt Q6B856+Q862L2+Q862F3) IC50 of the molecule C[C@]12CC[C@@H]3c4cc(O)c(=O)ccc4CC[C@H]3[C@@H]1CC[C@@H]2O equals 14.9

IC50 on Tubulin (Bos taurus, UniProt Q6B856+Q862L2+Q862F3) for CN(C)c1ccc2c(cc1=O)CC[C@@H]1[C@@H]2CC[C@]2(C)[C@@H](O)CC[C@@H]12 is 14.3

Observed IC50, Tubulin (Bos taurus, UniProt Q6B856+Q862L2+Q862F3), C/N=c1\ccc2c(cc1O)CC[C@@H]1[C@@H]2CC[C@]2(C)[C@@H](O)CC[C@@H]12 : 60.7

Record C[C@]12CC[C@@H]3c4ccc(=O)c(O)cc4CC[C@H]3[C@@H]1CC[C@@H]2O / Tubulin (Bos taurus, UniProt Q6B856+Q862L2+Q862F3), IC50 recorded as 22.8

Form field, IC50 with Tubulin (Bos taurus, UniProt Q6B856+Q862L2+Q862F3), item C/N=c1/cc2c(ccc1O)[C@H]1CC[C@]3(C)[C@@H](O)CC[C@H]3[C@@H]1CC2 : 19.4

Turning now to a further record.
Summary line: C[C@]12CC[C@@H]3c4ccc([N+](=O)[O-])c(=O)cc4CC[C@H]3[C@@H]1CC[C@@H]2O , Tubulin (Bos taurus, UniProt Q6B856+Q862L2+Q862F3), reported IC50 = 52
